Where do these numbers come from? They come from patent US6492374B2.

# assayTarget: cloned human 5-HT1A receptors (Homo sapiens, UniProt P08908)
# Construct: expressed in transfected cells; host or cells: HeLa cells (HA7), stably transfected; cell homogenate
# Sequence (P08908 1-422): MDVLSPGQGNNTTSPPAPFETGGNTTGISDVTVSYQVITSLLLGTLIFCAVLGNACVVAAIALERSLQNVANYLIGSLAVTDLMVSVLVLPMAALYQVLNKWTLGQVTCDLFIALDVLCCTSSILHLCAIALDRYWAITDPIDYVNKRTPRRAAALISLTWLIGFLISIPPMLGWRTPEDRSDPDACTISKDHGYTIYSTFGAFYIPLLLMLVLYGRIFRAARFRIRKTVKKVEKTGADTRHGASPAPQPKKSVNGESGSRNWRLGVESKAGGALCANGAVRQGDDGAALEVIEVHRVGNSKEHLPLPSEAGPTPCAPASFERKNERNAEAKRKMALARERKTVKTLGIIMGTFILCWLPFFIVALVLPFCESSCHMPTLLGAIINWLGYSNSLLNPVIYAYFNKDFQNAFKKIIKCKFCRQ
# runDescription: Inhibition of 3H-5-CT binding to human 5-HT1A receptors
# conditionContext: cloned human 5-HT1A receptors expressed in HeLa cells (HA7)
Give measured pIC50 for each item. Keep answers brief.
Kindly note that pIC50 refers to -log10 of the concentration in mol/L and answer with the value alone.

Requested read-out pIC50, target or system cloned human 5-HT1A receptors (Homo sapiens, UniProt P08908), entry CCN(CCCCc1c[nH]c2ccc(F)cc12)CCCC1(c2ccc(F)cc2)OCc2cc(C#N)ccc21 (stereo not drawn) [Compound 12v]
7.41

Also, C=CCN(CCCC1(c2ccc(F)cc2)OCc2cc(C#N)ccc21)CCc1c[nH]c2ccc(Cl)cc12 (stereo not drawn) [Compound 13f] please.
7.51

One more compound: CCN(CCCc1c[nH]c2c(F)cccc12)CCCC1(c2ccc(F)cc2)OCc2cc(C#N)ccc21 (stereo not drawn) [Compound 12p]
7.72

Query N#Cc1ccc2c(c1)COC2(CCCN(CCOc1ccccc1)CCc1c[nH]c2c(F)cc(F)cc12)c1ccc(F)cc1 (stereo not drawn) [Compound 13v] next
7.64

Same question for N#Cc1ccc2c(c1)COC2(CCCN(CCCc1c[nH]c2ccccc12)CCOc1ccccc1)c1ccc(F)cc1 (stereo not drawn) [Compound 13p] please.
7.64

Also C=CCN(CCCC1(c2ccc(F)cc2)OCc2cc(C#N)ccc21)CCOCc1ccccc1 (stereo not drawn) ?
7.96

One more compound: COc1cccc(OCCCN(C)CCCC2(c3ccc(F)cc3)OCc3cc(C#N)ccc32)c1 (stereo not drawn)
7.59

Same for CN(CCCc1cccc2c1OCCO2)CCCC1(c2ccc(F)cc2)OCc2cc(C#N)ccc21.O=C(O)C(=O)O (single isomer, unassigned; (+)) [Compound 1b, oxalate]
7.92

Same thing, different compound: C=CCN(CCCc1c[nH]c2ccc(Cl)cc12)CCCC1(c2ccc(F)cc2)OCc2cc(C#N)ccc21 (stereo not drawn) [Compound 13k]
7.72

// query: CCCN(CCCC1(c2ccc(F)cc2)OCc2cc(C#N)ccc21)CCc1c[nH]c2c(F)cc(F)cc12 (stereo not drawn) [Compound 13g]
7.74

Next entry: C=CCN(CCCC1(c2ccc(F)cc2)OCc2cc(C#N)ccc21)CCc1c[nH]c2ccccc12 (stereo not drawn)
8.49

Can you handle CCN(CCCC1(c2ccc(F)cc2)OCc2cc(C#N)ccc21)CCc1c[nH]c2ccc(F)cc12 (stereo not drawn) [Compound 12j] next?
8.10

Do the same for CCN(CCCc1c[nH]c2ccc(Br)cc12)CCCC1(c2ccc(F)cc2)OCc2cc(C#N)ccc21 (stereo not drawn) [Compound 12ad] please
7.68

Next entry: CN(CCCc1c[nH]c2ccc(Cl)cc12)CCCC1(c2ccc(F)cc2)OCc2cc(C#N)ccc21 (stereo not drawn) [Compound 12r]
7.80

Could you do the same for C=CCN(CCCC1(c2ccc(F)cc2)OCc2cc(C#N)ccc21)CCc1cc(OC)ccc1OC (stereo not drawn) , please?
8.80

One more compound: CCN(CCCc1c[nH]c2ccccc12)CCCC1(c2ccc(F)cc2)OCc2cc(C#N)ccc21 (stereo not drawn) [Compound 12f]
8.33

Next entry: CN(CCCC1(c2ccc(F)cc2)OCc2cc(C#N)ccc21)CCOc1ccccc1 (stereo not drawn)
7.74

Ok, now CN(CCCCc1c[nH]c2ccccc12)CCCC1(c2ccccc2)OCc2ccccc21 (stereo not drawn)
7.42

C=CCN(CCCC1(c2ccc(F)cc2)OCc2cc(C#N)ccc21)CCc1c[nH]c2c(F)cccc12 (stereo not drawn) [Compound 13c] ?
8.02

Check CCN(CCCC1(c2ccc(F)cc2)OCc2cc(C#N)ccc21)CCc1c[nH]c2ccc(I)cc12 (stereo not drawn) [Compound 12ae] too.
7.96

Also C=CCN(CCCc1ccccc1OC)CCCC1(c2ccc(F)cc2)OCc2cc(C#N)ccc21 (stereo not drawn) ?
9.38

How about CCN(CCCC1(c2ccc(F)cc2)OCc2cc(C#N)ccc21)CCc1c[nH]c2c(F)cc(F)cc12 (stereo not drawn) [Compound 12u] ?
8.05

Also, CCN(CCCc1c[nH]c2ccc(F)cc12)CCCC1(c2ccc(F)cc2)OCc2cc(C#N)ccc21 (stereo not drawn) [Compound 12q] please.
7.92

Same for N#Cc1ccc2c(c1)COC2(CCCN1CCN(c2cccc3[nH]ccc23)CC1)c1ccc(F)cc1 (stereo not drawn)
8.33

How about this compound: CN(CCCC1(c2ccc(F)cc2)OCc2cc(C#N)ccc21)CCc1cccc2c1OCCO2.O=C(O)C(=O)O (stereo not drawn) [Compound 1c, oxalate]
7.28

Also C=CCN(CCCC1(c2ccc(F)cc2)OCc2cc(C#N)ccc21)CCOc1ccccc1 (stereo not drawn) , if possible.
8.72

Ok, now C=CCN(CCCc1c[nH]c2ccc(F)cc12)CCCC1(c2ccc(F)cc2)OCc2cc(C#N)ccc21 (stereo not drawn) [Compound 13d]
7.82

Lookup CC(C)c1ccc2[nH]cc(CCN(CCCC3(c4ccc(F)cc4)OCc4cc(C#N)ccc43)CCOc3ccccc3)c2c1 (stereo not drawn) [Compound 13x]
7.59

Please give the result for CCN(CCCc1c[nH]c2ccc(C)cc12)CCCC1(c2ccc(F)cc2)OCc2cc(C#N)ccc21 (stereo not drawn) [Compound 12o] too.
8.21

Next compound: C=CCN(CCCc1c[nH]c2c(F)cccc12)CCCC1(c2ccc(F)cc2)OCc2cc(C#N)ccc21 (stereo not drawn) [Compound 13e]
7.66
